Target: dNCS-1 (Drosophila melanogaster, UniProt Q9VWX8)
Construct: made in house; host or cells: E. coli
Sequence (Q9VWX8 1-187): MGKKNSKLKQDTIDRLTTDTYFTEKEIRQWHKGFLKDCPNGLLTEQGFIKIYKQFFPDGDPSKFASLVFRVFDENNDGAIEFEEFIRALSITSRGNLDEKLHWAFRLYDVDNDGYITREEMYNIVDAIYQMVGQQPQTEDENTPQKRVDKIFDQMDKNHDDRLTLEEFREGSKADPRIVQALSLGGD
Assay: Tryptophan emission fluorescence of dNCS-1 at increasing ligand concentrations (apparent Kd)
Format: binding
Details: ligand 3.2 μM
measured.property: Normalized Fluorescence I0-I/I0

Example entries begin here.
{"columns": ["molecule", "measured.property", "quantitative.result"],
 "data": [
  ["O=C(N/N=C/c1ccc([N+](=O)[O-])c(O)c1)c1ccco1", "Normalized Fluorescence I0-I/I0", 0.131],
  ["CN(C)CCCN1c2ccccc2Sc2ccc(Cl)cc21 [CPZ, Chlorpromazine, reference compound]", "Normalized Fluorescence I0-I/I0", 0.266]
]}

a. O=C(Cc1c[nH]c2ccccc12)NN=Cc1ccc([N+](=O)[O-])c(O)c1 (mixture of isomers)
b. O=C(NN=Cc1ccc([N+](=O)[O-])c(O)c1)C(O)c1ccccc1 (mixture of isomers)
Could you tell me which of a and b has the lower Normalized Fluorescence I0-I/I0 reading? Selection: enter the item's label.
a

====

Protein target, amino acids: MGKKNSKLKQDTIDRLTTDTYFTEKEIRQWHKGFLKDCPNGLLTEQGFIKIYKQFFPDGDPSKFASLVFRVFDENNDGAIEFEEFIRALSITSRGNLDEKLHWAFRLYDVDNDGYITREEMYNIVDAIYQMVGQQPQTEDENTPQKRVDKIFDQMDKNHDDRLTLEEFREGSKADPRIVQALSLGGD
measured.property: Kd (µM)

a. CN(C)CCCN1c2ccccc2Sc2ccc(Cl)cc21 [CPZ, Chlorpromazine, reference compound]
b. O=C(N/N=C/c1ccc([N+](=O)[O-])c(O)c1)c1ccco1
Could you tell me which of a and b has the lower Kd reading? Selection: enter the item's label.
a
(a: 12 µM, b: 32 µM)

====

Listed next: entries and their corresponding Pe (10-6 cm s-1) Experimental 2.
test: Parallel artificial membrane permeability assay (PAMPA-BBB); assay type: in vitro ADME; conditions: source data

Example entries begin here.
{"columns": ["compound", "measured.property", "result"],
 "data": [
  ["O=C(Cc1c[nH]c2ccccc12)NN=Cc1ccc([N+](=O)[O-])c(O)c1 (mixture of isomers) [3b]", "Pe (10-6 cm s-1) Experimental 2", "12.33 10-6 cm s-1"],
  ["CN1C(C(=O)Nc2ccccn2)=C(O)c2ccccc2S1(=O)=O [Piroxicam]", "Pe (10-6 cm s-1) Experimental 2", "1.16 10-6 cm s-1"],
  ["CN(C)CCCN1c2ccccc2Sc2ccccc21 [Promazine]", "Pe (10-6 cm s-1) Experimental 2", "9.04 10-6 cm s-1"],
  ["CNCCCN1c2ccccc2CCc2ccccc21 [Desipramine]", "Pe (10-6 cm s-1) Experimental 2", "16.20 10-6 cm s-1"],
  ["Cn1c(=O)c2c(ncn2C)n(C)c1=O [Caffeine]", "Pe (10-6 cm s-1) Experimental 2", "0.87 10-6 cm s-1"],
  ["O=C(N/N=C/c1ccc([N+](=O)[O-])c(O)c1)c1ccco1 [3a]", "Pe (10-6 cm s-1) Experimental 2", "1.25 10-6 cm s-1"],
  ["CCn1cc(C(=O)O)c(=O)c2cc(F)c(N3CCNCC3)nc21 [Enoxacin]", "Pe (10-6 cm s-1) Experimental 2", "1.30 10-6 cm s-1"]
]}

Need Pe (10-6 cm s-1) Experimental 2 of O=C(NN=Cc1ccc([N+](=O)[O-])c(O)c1)C(O)c1ccccc1 (mixture of isomers) [3d] , thanks.
2.04 10-6 cm s-1

====

experiment: Parallel artificial membrane permeability assay (PAMPA-BBB); format: in vitro ADME; details: source data
measured.property: Pe (10-6 cm s-1) Experimental 3

{"columns": ["molecule", "result"],
 "data": [
  ["CCn1cc(C(=O)O)c(=O)c2cc(F)c(N3CCNCC3)nc21", "1.47 10-6 cm s-1"],
  ["CN(C)CCCN1c2ccccc2Sc2ccccc21", "9.94 10-6 cm s-1"],
  ["CN1C(C(=O)Nc2ccccn2)=C(O)c2ccccc2S1(=O)=O", "1.44 10-6 cm s-1"],
  ["O=C(NN=Cc1ccc([N+](=O)[O-])c(O)c1)C(O)c1ccccc1 (mixture of isomers)", "2.94 10-6 cm s-1"],
  ["O=C(Cc1c[nH]c2ccccc12)NN=Cc1ccc([N+](=O)[O-])c(O)c1 (mixture of isomers)", "13.52 10-6 cm s-1"]
]}

Need Pe (10-6 cm s-1) Experimental 3 of CNCCCN1c2ccccc2CCc2ccccc21 , thanks.
13.70 10-6 cm s-1

Input O=C(N/N=C/c1ccc([N+](=O)[O-])c(O)c1)c1ccco1
2.25 10-6 cm s-1

Input Cn1c(=O)c2c(ncn2C)n(C)c1=O
1.70 10-6 cm s-1

====

target: dNCS-1 (Drosophila melanogaster, UniProt Q9VWX8); construct: made in house; host or cells: E. coli; assay: Tryptophan emission fluorescence of dNCS-1 at increasing ligand concentrations (apparent Kd); type: binding; details: ligand 24 μM
measured.property: Normalized Fluorescence I0-I/I0

Example entries begin here.
{"columns": ["molecule", "Normalized Fluorescence I0-I/I0"],
 "data": [
  ["O=C(NN=Cc1ccc([N+](=O)[O-])c(O)c1)C(O)c1ccccc1 (mixture of isomers)", 0.401],
  ["O=C(N/N=C/c1ccc([N+](=O)[O-])c(O)c1)c1ccco1", 0.544]
]}

P. CN(C)CCCN1c2ccccc2Sc2ccc(Cl)cc21 [CPZ, Chlorpromazine, reference compound]
Q. O=C(Cc1c[nH]c2ccccc12)NN=Cc1ccc([N+](=O)[O-])c(O)c1 (mixture of isomers)
Could you tell me which of P and Q has the lower Normalized Fluorescence I0-I/I0 reading? Selection: enter the item's label.
Q
